Data origin, for the record: patent US20250034594A1

test system: gene editing with Cas9; assay: Screen of 322 new SSAP proteins, gene editing activity with Cas9 (Table 5); assay type: cell-based; conditions: normalized

molecule	Cas9 with SSAP activity (normalized)
SSAP_226: SEQ ID NO: 395; Companilactobacillus furfuricola (protein, listed as Companilactobacillus furfuricola) VNNLAKLPIQTLVKEPKIVEKFESVLGNKSAQFVTSLINVVNSNQSLKNVDQMSVVASAMVAASLDLPINQDLGYMWLVPYGGKAQPQMGYKGYIQLAQRTGQYKHLNAVAVYEDEFQSYNPLTEQLDYEPHFKDRDSSEKPVGYVGYFELTSGFEKTVYWTRKQIDDHRQSFSKMSGKSKPSGVWATNFDAMALKTVLRNLISKWGPMSVEMQKAYESDEHATTISANDIKDIEVQEQEPATDVSQLINGSATEVNVNDSTTNSKDSE	−1.377
SSAP_153: SEQ ID NO: 322; Staphylococcus intermedius (protein, listed as Staphylococcus intermedius) ANANSFKEQVSKNEVQETNNEKPKGPRQQVSDLLERMAPEIQKALPSHMSAERMARIAMTAISSNPQLLECNPRSLIGALLQASQIGLEPNTALGQAYLIPYYNHKKKEFEAQLQLSYLGLIELATRTGQYKAIYAHEVYKEDEFYYEYGLHKNLVHKPVDDPNGEPVGYYAVYHLQNGGFDFAYWTKNKIELHAGNYSKAVQKGWNSPWKTDFNAMAKKTVLKDLLKYAPKSIEISQAVGSDSKVTEINKQGEIIDITEYGQEALEG	−0.296
